Values from patent US5409949A

target or test system: v-abl kinase
experiment notes: Autophosphorylation assay (v-abl kinase)
Format: biochemical
setup conditions: immunoprecipitated v-abl kinase, 10 μM ATP, 15 min, room temperature
measured endpoint: pIC50
Formally, pIC50 is defined as -log10 of the concentration c, with c in mol/L.

compound	measured endpoint	result number
O=C1Nc2ccc(O)cc2C1=Cc1c[nH]c2ccccc12	pIC50	6.40

For the next question, use this compound.
[ask] What does the data say about its pIC50? Entry: O=C1Nc2ccccc2C1=Cc1c[nH]c2ccccc12 [3-[(3'-indolyl)methylen]-2-oxindole]
[reply] 5.00

----------
target or test system: v-abl kinase
experiment notes: Myelin Basic Protein phosphorylation assay
Type: biochemical
setup conditions: myelin basic protein 56 μM as substrate, 10 μM cold ATP, pH 8.0, 22° C.
Listed compounds paired with reported IC50
Value expressed in µM; do not type the unit.

compound	IC50 / µM
O=C1Nc2ccccc2C1=Cc1c[nH]c2ccccc12 [3-[(3'-indolyl)methylen]-2-oxindole]	0.6

For the next question, use this compound.
[ask] Field: IC50 (v-abl kinase). Entry: "O=C1Nc2ccc(O)cc2C1=Cc1c[nH]c2ccccc12"
[reply] 0.4
